System: MEK6
Construct: gene MAP2K6
experimentalParameters: concentration: 1 μM, replicates: in singlicate; n = 1;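 note: KINOMEscan kinase panel screen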
parameterMeasured: %Inh (%)
Numbers only, in %.

> print(dat)
                                   compound  parametermeasured  readingunit  resultvalue
1  Cl.c1ccc(-c2ccc3c(Nc4ccc5[nH]ncc5c4)ccnc3c2)nc1 [GW440137]               %Inh            %            0
2  O=C(Nc1n[nH]c2nc(-c3ccc(O)cc3)ccc12)C1CC1 [SB-710363]               %Inh            %            0
3  Nc1ncc(-c2ccc3nccc(-c4ccncc4)c3c2)cc1S(=O)(=O)N1CCOCC1 [GSK1627798]               %Inh            %            0

List reported %Inh for each of these compounds:
1. C[C@@H]1CC[C@@H](C(=O)Nc2ccccc2)CN1c1cc(-c2ccc3c(N)n[nH]c3c2)nc(N)n1 [GSK2286062]
2. CN1CCN(CCCNc2nccc(-c3c(-c4ccc(F)cc4)nn4cc(C(F)(F)F)ccc34)n2)CC1 [GW621581]
3. CNC(=O)c1ccccc1Nc1nc(Nc2ccc(N3CCOCC3)cc2)ncc1Cl.Cl [GSK1576028]
4. Fc1ccc(-c2ncn(C3CCNCC3)c2-c2ccnc(Oc3ccc(-c4ccccc4)cc3)n2)cc1 [SB-245391]
5. O=C(Nc1ccccc1F)NC1CCN(c2ccnc(Nc3ccc(F)cc3)n2)CC1 [GSK1379800]

Ans:
[8, 0, 79, 29, 0]

###

Exercise: state measured %Inh for each of the compounds provided.
System: TNNI3K
experimentalParameters: concentration: 1 μM, replicates: in singlicate; n = 1
# output: number + unit

# example entries with known answers
> print(dat)
                                   compound  parametermeasured  resultvalue
1  CN1CCN(CCCNc2nccc(-c3c(-c4ccc(F)cc4)nn4cc(C(F)(F)F)ccc34)n2)CC1               %Inh           0%
2  COc1cc(Nc2nccc(-c3c(-c4cccc(NC(=O)c5c(F)cccc5F)c4)nn4ccccc34)n2)cc(OC)c1OC               %Inh           3%
3     O=C(Nc1n[nH]c2cc(-c3ccoc3)ccc12)C1CC1               %Inh           0%

Next, consider the following compound.
Q: // query %Inh value for entry Cl.Cl.NCC(C(=O)Nc1cc(Br)c(-c2ccnc3[nH]ccc23)s1)c1ccccc1 (stereo not shown)
Ans: 12%

###

Test system: PCTK2
Construct: gene CDK17
experimentalParameters: concentration: 1 μM, replicates: in singlicate; n = 1
parameterMeasured: %Inh (%)
Answers are plain numbers, in %.

Hi there! I need %Inh for each item below, if you can.
1. COc1ccc(Nc2nccc(N3CCC(NC(=O)Nc4cccc(OC)c4)C3)n2)cc1 (centres unmarked) [GSK1379742]
2. COc1ccc(Nc2nccc(NCCNC(=O)c3cc4ccccc4s3)n2)cc1 [GSK1379896]

Ans:
1: 0; 2: 0

Quick request: %Inh for each listed item, please.
1. CCS(=O)(=O)c1ccc(OC)c(Nc2nccc(-c3c(-c4cccc(NC(=O)c5c(F)cccc5F)c4)nn4ncccc34)n2)c1 [GSK326180]
2. COc1cccc(C(=O)Nc2cccc(Oc3ccc4nc(NC(=O)C5CC5)cn4n3)c2)c1
3. CCn1c(-c2nonc2N)nc2c(C#CC(C)(C)O)nc(OC[C@H](N)c3ccccc3)cc21 [GSK943949]
4. Cl.Cl.NCC(C(=O)Nc1cc(Br)c(-c2ccnc3[nH]ccc23)s1)c1ccccc1 (centres unmarked) [GSK1269851]

Ans:
0
0
0
6

Dear reader, for each entry below, please note its %Inh.
1. Clc1ccc(-c2nn3ncccc3c2-c2ccnc(Nc3ccc4c(c3)OCCO4)n2)cc1 [GW829116]
2. CSc1cccc2c(-c3ccncn3)c(-c3ccc(F)cc3)nn12 [GW514786]
3. C[C@@H]1CC[C@@H](C(=O)Nc2ccccc2)CN1c1cc(-c2ccc3c(N)n[nH]c3c2)nc(N)n1 [GSK2286062]
4. COc1cc(Nc2nccc(N3CCC(NC(=O)Nc4cccc(C(C)=O)c4)C3)n2)cc(OC)c1OC (centres unmarked) [GSK1379753]

Ans:
0
0
13
26

###

Tested on: MAP3K2
experimentalParameters: concentration: 1 μM, replicates: in singlicate; n = 1
parameterMeasured: %Inh (%)
Answers are plain numbers, in %.

> print(dat)
                                   compound  parametermeasured  resultvalue
1  CSc1cccc2c(-c3ccncn3)c(-c3ccc(F)cc3)nn12 [GW514786]               %Inh            0

State recorded %Inh for all listed compounds.
1. Cl.Cl.NCC(C(=O)Nc1cc(Br)c(-c2ccnc3[nH]ccc23)s1)c1ccccc1 (centres unmarked) [GSK1269851]
2. Cn1cc(-c2[nH]c3cc(NC(=O)[C@H](N)C4CCCCC4)cc4c3c2C=NNC4=O)cn1

Ans:
1: 13; 2: 98.3

For every record below, what is its %Inh?
1. CCc1ccc(-c2ccc3c(c2)-c2c(cnn2C)S(=O)(=O)N3C)cc1
2. Cn1cc(-c2ccc3c(c2)CCN3C(=O)Cc2cccc(Cl)c2)c2c(N)ncnc21 [GSK2606590]

Ans:
[0, 84]

###

Could you please report measured %Inh for the items listed next?
Test system: CAMKK1
experimentalParameters: concentration: 1 μM, replicates: in singlicate; n = 1
Give bare numbers, in %.

> print(dat)
                                   compound  resultvalue
1  COC(=O)Nc1nc2ccc(Oc3ccc(NC(=O)Nc4cc(C(F)(F)F)ccc4F)cc3)cc2n1C.Cl            4

Give %Inh for all compounds that follow.
1. CN(C)Cc1ccc(-c2ccc3c(Nc4ccc(Oc5ccccn5)cc4)ccnc3c2)o1
2. Cc1ccc(F)c(C(=O)Nc2cccc(-c3nn4ccccc4c3-c3ccnc(Nc4cccc(F)c4)n3)c2)c1F
3. O=C(Nc1cccc(-c2nn3ccccc3c2-c2ccnc(Nc3cccc(F)c3)n2)c1)c1c(F)ccc(F)c1Cl

Ans:
1. 0
2. 17
3. 0

For every listed record, write down its %Inh.
1. CN(C)S(=O)(=O)c1cc(-c2ccc3nccc(-c4cccc(S(N)(=O)=O)c4)c3c2)cnc1N
2. COc1cc2c(cc1OCCN1CCNCC1)ncc1c3ccc(C#N)cc3[nH]c21
3. O=C(Nc1ccccc1F)NC1CCN(c2ccnc(Nc3ccc(F)cc3)n2)CC1
4. COc1cc(Nc2nccc(N3CCC(NC(=O)Nc4cccc(C(C)=O)c4)C3)n2)cc(OC)c1OC (stereo not shown)

Ans:
48
80
0
0

Go through the items and report each one's %Inh.
1. Cc1ccc(C(=O)N2CC[C@@H](O)C2)cc1-n1c(C)cc(OCc2ccc(F)cc2F)c(Br)c1=O
2. C[C@@H](Oc1cc(-n2cnc3cc(-c4ccnc(NCCS(C)(=O)=O)c4)ccc32)sc1C(N)=O)c1ccccc1Cl
3. COc1ccc(CNC(=O)NC2CCN(c3ccnc(Nc4ccc(F)cc4)n3)CC2)cc1
4. Cc1ccc(C)c(NC(=O)NC2CCN(c3ccnc(Nc4ccc(F)cc4)n3)C2)c1 (stereo not shown)
5. COc1cc(Nc2nccc(-c3c(-c4cccc(NC(=O)c5c(F)cccc5F)c4)nn4ncccc34)n2)cc(OC)c1OC
6. Cl.Cl.NCC(NC(=O)c1cc(-c2ccccc2)c(-c2ccnc3[nH]ccc23)s1)c1ccccc1 (stereo not shown)
7. Cl.c1ccc(-c2ccc3c(Nc4ccc5[nH]ccc5c4)ccnc3c2)nc1

Ans:
[0, 21, 2, 0, 24, 15, 3]

Q: I'm curious: which %Inh was measured for `CC(=O)Nc1nc2cnc(Nc3cc(NC(=O)c4cccc(C5(C#N)CC5)c4Cl)ccc3C)nc2s1` tested on CAMKK1?
Ans: 14

###

Assignment: determine reported %Inh for the given compounds.
System: CLK1
experimentalParameters: concentration: 1 μM, replicates: in singlicate; n = 1
One number for each entry, in %.

Reference set (6 entries):
> print(dat)
                                   compound  parametermeasured  readingunit  resultvalue
1  Cc1ccc(C(=O)N2CC[C@@H](O)C2)cc1-n1c(C)cc(OCc2ccc(F)cc2F)c(Br)c1=O               %Inh            %            5
2  CCS(=O)(=O)c1ccc(OC)c(Nc2nccc(-c3c(-c4cccc(NC(=O)c5c(F)cccc5F)c4)nn4ncccc34)n2)c1 [GSK326180]               %Inh            %           40
3  Cl.Cl.NCC(NC(=O)c1cc(-c2ccccc2)c(-c2ccnc3[nH]ccc23)s1)c1ccccc1 (stereo not shown) [GSK1321561]               %Inh            %           33
4  O=C(O)C(F)(F)F.O=C(O)C(F)(F)F.O=c1[nH]ccc2nc(N[C@@H]3CCCNC3)nc(Nc3ccc(S(=O)(=O)N4CCOCC4)cc3)c12 [GSK2177277]               %Inh            %           76
5  COC(=O)Nc1nc2cc(Oc3ccc(NC(=O)Nc4cc(C(F)(F)F)ccc4F)cn3)ccc2[nH]1.Cl.Cl [GW681170]               %Inh            %           42
6  Cc1ccc(F)c(C(=O)Nc2cccc(-c3nn4ccccc4c3-c3ccnc(Nc4cccc(F)c4)n3)c2)c1F [GSK361061]               %Inh            %           32

Please look at the items below and tell me %Inh for each one, in order.
1. COc1ccc(Nc2nccc(NCCNC(=O)c3cc4ccccc4s3)n2)cc1 [GSK1379896]
2. CCn1c(-c2nonc2N)nc2c(C#CC(C)(C)O)ncc(OCCCCN)c21.O=C(O)C(F)(F)F.O=C(O)C(F)(F)F [GSK507274]
3. c1ccc(-c2n[nH]cc2Nc2ccnc3ccccc23)nc1 [GW694077]
4. COCCOCCOc1cc2ncc3c4ccc(C#N)cc4[nH]c3c2cc1OC

Ans:
1: 20; 2: 21; 3: 98.2; 4: 84

Data provenance: paper PMC5540273
